# System: A549/ATCC NSCLC
# protocol: NCI-60 one-dose screen, 48 h (100 = growth as untreated, 0 = no growth, -100 = all killed)
# experimental_parameters: 10 µM unless noted
This is part of a sample that, as a whole, favours compounds with a hit. Of some 83,000 tested, about 20% had one in any assay.
Please map values of growth to classes as shown: bin 1: < 20%; bin 2: ≥ 20% and < 80%; bin 3: ≥ 80%

Reference set (5 entries):
[[record]]
compound = "CCOC(=O)[C@@H](C)C[C@H](Cc1ccccc1)NC(=O)c1nc([C@@H](C[C@H](C(C)C)N(C)C(=O)[C@@H](NC(=O)[C@H]2CCCCN2C)C(C)C)OC(C)=O)sc1CCOCc1ccccc1"
measurement_target = "A549/ATCC NSCLC"
label = "bin 1"

[[record]]
compound = "CC1(C)N=C(N)N=C(N)N1c1cccc(CCCCc2ccc(Cl)c(S(=O)(=O)F)c2)c1"
measurement_target = "A549/ATCC NSCLC"
label = "bin 1"

[[record]]
compound = "COc1cc([N+](=O)[O-])c2nc(C)ccc2c1[N+](=O)[O-]"
measurement_target = "A549/ATCC NSCLC"
label = "bin 3"

[[record]]
compound = "O=C(O)C1C(C(=O)O)C2(Cl)C(Cl)=C(Cl)C1(Cl)C2(Cl)Cl.[Hg] (stereo not drawn)"
measurement_target = "A549/ATCC NSCLC"
label = "bin 3"

[[record]]
compound = "CN[C@@]1(c2ccccc2Cl)CCCC[C@@H]1NCC1CCCO1 (stereo partly drawn)"
measurement_target = "A549/ATCC NSCLC"
label = "bin 3"


Form field 'band' for CC(C)(C)C(=O)OCOP(=O)(OCOC(=O)C(C)(C)C)C1CCCN(O)C1=O (stereo not drawn)
bin 1

Lab log: COP(=O)(OC)C(O)c1ccc(Cl)cc1 (stereo not drawn) — assign growth category
bin 3

Classify this compound: "Fc1ccc2c(c1)c(-c1nc(-c3c[nH]c4ncccc34)cs1)cn2CCN1CCOCC1"
bin 2

Which of the defined bands does the recorded growth of "COC(=O)C12CC(NC(=O)c3csc([C@@H](C[C@H](C(C)C)N(C)C(=O)[C@@H](NC(=O)[C@H]4CCCCN4C)C4CC4)OC(C)=O)n3)(C1)C2" sit within?
bin 1

Exam item: assign "COc1ccc(C(=O)c2sc3nc4c(cc3c2N)N2CCC4CC2)cc1OC" to the correct category.
bin 3

Form: Item = C[C@@H]1O[C@@H](O[C@H]2C[C@@H](O)[C@]3(CO)C4C(CC[C@]3(O)C2)[C@@]2(O)CC[C@H](C3=CC(=O)OC3)[C@@]2(C)C[C@H]4O)[C@H](O)[C@H](O)[C@H]1O (stereo partly drawn) ; Class = ?
bin 1

Category of "O=C1NC(=O)C(=Cc2cn(C(=O)c3ccccc3)c3ccccc23)C(=O)N1" , please.
bin 3

In plain terms, what class is COC(C(=O)[C@@H](O)[C@@H](C)O)[C@@H]1Cc2cc3cc(O[C@H]4C[C@@H](O[C@H]5C[C@@H](O)[C@H](O)C(C)O5)[C@H](O)C(C)O4)c(C)c(O)c3c(O)c2C(=O)[C@H]1O[C@H]1C[C@@H](O[C@H]2C[C@@H](O[C@H]3C[C@@H](O)[C@@H](O)C(C)O3)[C@@H](O)C(C)O2)[C@H](O)C(C)O1 (stereo partly drawn) ?
bin 1

Which class is correct for the following compound? "C=CC[n+]1ccc(-c2cc[n+](CC=C)cc2)cc1"
bin 2

Kindly state the category for this compound: "COC(=O)N[C@H]1CCc2c(Br)c(OC)c(OC)c(OC)c2-c2ccc(SC)c(=O)cc21"
bin 1

Given O=[N+]([O-])c1ccc([Se]C2CCCCC2Cl)c([N+](=O)[O-])c1 (stereo not drawn) , name the class its growth places it in.
bin 2

Form: Item = "Cc1ccc(C(=O)NCCCOc2ccc(N3C(N)=NC(N)=NC3(C)C)cc2Cl)cc1S(=O)(=O)F" ; Class = ?
bin 2

In plain terms, what class is CC(=O)OC1CCC2C3CCC4=C/C(=N/OC(=O)c5ccc(N(CCCl)CCCl)cc5)CCC4(C)C3CC(C)C12 (stereo not drawn) ?
bin 2

Which class holds "C[C@]12C[C@@H](CO)[C@H](O)C[C@@H]1CC[C@@H]1[C@@H]2CC[C@]2(C)[C@@H](O)CC[C@@H]12" ?
bin 3
